These entries and their values trace back to ChEMBL document CHEMBL6182948.

- Assayed System: Cytochrome P450 1A1 (Homo sapiens, UniProt P04798)
- Sequence (P04798 whole entry): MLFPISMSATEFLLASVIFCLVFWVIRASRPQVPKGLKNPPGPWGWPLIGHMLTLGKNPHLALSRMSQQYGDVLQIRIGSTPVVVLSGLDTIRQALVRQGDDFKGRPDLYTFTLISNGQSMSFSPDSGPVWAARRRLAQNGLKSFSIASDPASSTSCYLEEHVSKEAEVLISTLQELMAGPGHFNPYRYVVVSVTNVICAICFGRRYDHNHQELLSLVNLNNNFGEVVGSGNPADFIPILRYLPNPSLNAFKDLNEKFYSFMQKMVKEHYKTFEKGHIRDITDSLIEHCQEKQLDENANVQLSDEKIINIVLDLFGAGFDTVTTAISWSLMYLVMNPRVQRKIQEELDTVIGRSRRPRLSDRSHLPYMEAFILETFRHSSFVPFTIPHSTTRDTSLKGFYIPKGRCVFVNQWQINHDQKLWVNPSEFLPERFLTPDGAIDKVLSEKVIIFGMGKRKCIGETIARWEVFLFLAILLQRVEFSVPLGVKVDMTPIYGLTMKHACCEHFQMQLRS
- Assay Notes: Inhibition of human recombinant CYP1A1 using 7-ethoxyresorufin as substrate incubated under dark condition for 15 mins in presence of NADPH by EROD fluorescence assay
- Assay type: ADME
Outcome Measure: pIC50
One number for each entry, as −log10 of the molar value.

Example entries and their recorded answers appear below.
{"Entry Smiles": "O=C(Nc1ccc(Cl)cc1Cl)c1nc(-c2ccccc2)cs1", "Outcome Measure": "pIC50", "Observed Measurement": 6.60}
{"Entry Smiles": "O=C(Nc1ccc(OC(F)F)cc1)c1nc(-c2cccc(F)c2)cs1", "Outcome Measure": "pIC50", "Observed Measurement": 6.84}
{"Entry Smiles": "O=C(Nc1ccc(OC(F)F)cc1)c1nc(-c2ccc(Cl)cc2)cs1", "Outcome Measure": "pIC50", "Observed Measurement": 7.23}

Quick one: give me pIC50 for each item below, same order please.
1. O=C(Nc1cc(Cl)cc(Cl)c1)c1nc(-c2ccc(O)cc2)cs1
2. O=C(Nc1ccc(C(F)F)cc1)c1nc(-c2ccccc2)cs1
3. O=C(Nc1cc(Cl)cc(Cl)c1)c1nc(-c2ccc(F)cc2)cs1

6.12
5.76
6.56

###

Exercise: for every item that follows, state its recorded pIC50.
- Assayed System: UniProt P05177
- Sequence (P05177 whole entry): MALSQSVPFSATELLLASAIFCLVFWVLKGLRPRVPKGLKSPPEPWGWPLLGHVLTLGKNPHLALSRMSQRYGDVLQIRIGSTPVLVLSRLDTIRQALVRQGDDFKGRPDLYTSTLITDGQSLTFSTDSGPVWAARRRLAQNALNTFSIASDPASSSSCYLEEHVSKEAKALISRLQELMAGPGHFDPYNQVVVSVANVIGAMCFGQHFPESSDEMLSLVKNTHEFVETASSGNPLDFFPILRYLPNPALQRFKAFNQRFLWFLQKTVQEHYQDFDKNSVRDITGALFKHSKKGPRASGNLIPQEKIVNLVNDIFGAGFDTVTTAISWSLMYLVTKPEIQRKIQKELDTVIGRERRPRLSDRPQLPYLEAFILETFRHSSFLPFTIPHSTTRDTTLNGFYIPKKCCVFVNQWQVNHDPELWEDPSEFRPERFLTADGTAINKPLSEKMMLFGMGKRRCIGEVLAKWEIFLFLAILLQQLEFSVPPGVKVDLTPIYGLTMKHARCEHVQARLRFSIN
- Assay Notes: Inhibition of human recombinant CYP1A2 using 7-ethoxyresorufin as substrate incubated under dark condition for 45 mins in presence of NADPH by EROD fluorescence assay
One number for each entry, as −log10 of the molar value.

Example entries and their recorded answers appear below.
{"Entry Smiles": "Cc1sc(C(=O)Nc2ccc(C(F)(F)F)cc2)nc1-c1cccc(F)c1", "Observed Measurement": 5.63}
{"Entry Smiles": "O=C(Nc1ccc(C(F)(F)F)cc1)c1nc(-c2ccc(F)cc2)cs1", "Observed Measurement": 6.22}
{"Entry Smiles": "COc1cc(NC(=O)c2nc(-c3ccccc3)cs2)cc(OC)c1", "Observed Measurement": 6.14}
{"Entry Smiles": "O=C(Nc1cc(Cl)cc(Cl)c1)c1nc(-c2cncc(Cl)c2)cs1", "Observed Measurement": 8.01}
{"Entry Smiles": "O=C(Nc1cc(Cl)cc(Cl)c1)c1nc(-c2ccccc2)cs1", "Observed Measurement": 6.15}
{"Entry Smiles": "O=C(Nc1ccc(C(F)(F)F)cc1)c1nc(-c2cccc(Cl)c2)cs1", "Observed Measurement": 6.17}

Quick one: give me pIC50 for each item below, same order please.
1. O=C(Nc1cc(Cl)cc(Cl)c1)c1nc(-c2ccccc2Cl)cs1
2. COc1ccc(NC(=O)c2nc(-c3ccccc3)cs2)cc1
3. O=C(Nc1cc(Cl)cc(Cl)c1)c1nc(-c2ccc(Cl)cc2)cs1

6.27
6.05
5.88

###

- Assay Notes: Stability in human plasma assessed as compound remaining at 100 uM measured after 5 mins by LC-MS/MS analysis
- Format: ADME, cell-free
- Run Conditions: read-out: Stability
Outcome Measure: remaining at 5 min, 100 µM

Example entries and their recorded answers appear below.
{"Compound": "O=C(Nc1cc(Cl)cc(Cl)c1)c1nc(-c2cccc(Cl)c2)cs1", "Observed Measurement": "87.1%"}
{"Compound": "CC(C)[N+](C)(CCOC(=O)C1c2ccccc2Oc2ccccc21)C(C)C [PROPANTHELINE BROMIDE]", "Observed Measurement": "90.7%"}
{"Compound": "N#Cc1ccc(-c2csc(C(=O)Nc3cc(Cl)cc(Cl)c3)n2)cc1", "Observed Measurement": "106%"}

Now look at this one.
For the compound shown here, N#Cc1ccc(-c2csc(C(=O)Nc3ccc(C(F)(F)F)cc3)n2)cc1 , give the reported remaining at 5 min, 100 µM.
99%
